Biological target: Human CD117 as expressed on cells (Kasumi-1 cells; primary human CD34+ bone marrow cells) (human, UniProt P10721 26-976)
Sequence (P10721 26-976 limits assumed): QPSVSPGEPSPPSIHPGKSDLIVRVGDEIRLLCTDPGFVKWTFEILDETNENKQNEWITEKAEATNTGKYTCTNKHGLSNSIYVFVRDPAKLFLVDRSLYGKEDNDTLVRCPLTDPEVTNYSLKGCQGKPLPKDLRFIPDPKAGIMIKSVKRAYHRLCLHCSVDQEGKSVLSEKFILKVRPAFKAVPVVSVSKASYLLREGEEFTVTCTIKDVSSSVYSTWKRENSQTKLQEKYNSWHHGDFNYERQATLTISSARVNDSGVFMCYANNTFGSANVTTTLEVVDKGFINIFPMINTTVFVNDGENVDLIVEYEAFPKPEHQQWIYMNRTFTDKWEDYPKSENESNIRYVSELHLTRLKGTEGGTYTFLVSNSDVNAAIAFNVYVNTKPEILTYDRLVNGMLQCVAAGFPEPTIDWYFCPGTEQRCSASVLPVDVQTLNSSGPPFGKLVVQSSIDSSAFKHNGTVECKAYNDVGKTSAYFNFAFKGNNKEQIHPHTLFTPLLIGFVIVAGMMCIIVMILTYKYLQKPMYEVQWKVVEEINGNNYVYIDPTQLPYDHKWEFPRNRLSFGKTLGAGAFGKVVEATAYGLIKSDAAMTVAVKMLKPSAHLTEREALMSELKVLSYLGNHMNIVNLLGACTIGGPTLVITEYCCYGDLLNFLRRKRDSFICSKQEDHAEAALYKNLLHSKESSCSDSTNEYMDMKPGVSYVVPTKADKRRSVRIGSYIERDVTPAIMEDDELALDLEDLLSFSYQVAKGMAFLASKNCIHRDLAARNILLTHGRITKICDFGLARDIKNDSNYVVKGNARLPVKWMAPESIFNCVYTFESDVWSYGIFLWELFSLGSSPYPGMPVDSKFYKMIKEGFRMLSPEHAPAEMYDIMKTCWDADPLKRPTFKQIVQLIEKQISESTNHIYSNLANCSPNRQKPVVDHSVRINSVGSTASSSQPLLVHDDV
Assay: cell-based or functional assay
property.measured: AUC Kasumi-1 Killing (AUC hIgG1 - AUC MAC ID#)
One number for each entry.

binder	result
Antibody 55 (Ab55) (antibody, V domains shown) VH: QVQLVQSGAEVKKPGSSVKVSCKASGGTFRIYAISWVRQAPGQGLEWMGGIIPDFGVANYAQKFQGRVTITADESTSTAYMELSSLRSEDTAVYYCARGGLDTDEFDLWGRGTLVTVSS VL: DIQMTQSPSSLSASVGDRVTITCRASQSINSYLNWYQQKPGKAPKLLIYAASSLQSGVPSRFSGSGSGTDFTLTISSLQPEDFATYYCQQGVSDITFGGGTKVEIKR	226000

Return reported AUC Kasumi-1 Killing (AUC hIgG1 - AUC MAC ID#) values for all items listed beneath this line.
1. CK6 (antibody, V domains shown) VH: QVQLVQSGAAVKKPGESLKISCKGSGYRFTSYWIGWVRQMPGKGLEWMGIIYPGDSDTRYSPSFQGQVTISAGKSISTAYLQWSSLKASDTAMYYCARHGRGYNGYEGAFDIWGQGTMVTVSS VL: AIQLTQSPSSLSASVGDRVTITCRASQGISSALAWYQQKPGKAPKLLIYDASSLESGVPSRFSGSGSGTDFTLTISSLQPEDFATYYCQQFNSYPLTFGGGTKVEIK
2. Antibody 61 (Ab61) (antibody, V domains shown) VH: EVQLLESGGGLVQPGGSLRLSCAASGFTFSSYVMIWVRQAPGKGLEWVSSISGDSVTTYYADSVKGRFTISRDNSKNTLYLQMNSLRAEDTAVYYCAKGPPTYHTNYYYMDVWGKGTTVTVSS VL: DIQMTQSPSSVSASVGDRVTITCRASQGISSWLAWYQQKPGKAPKLLIYAASSLQSGVPSRFSGSGSGTDFTLTISSLQPEDFATYYCQQTNSFPYTFGGGTKVEIKR

[out]
[132000, 78600]
